Field: normalized growth. Provide a value for each of the compounds that follow.
test: chemical genetic growth profiling, strain panel (AID 1159580);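 note: tested at 20 µM; growth read once vehicle control cultures reached saturation at 30 °C; 1 = growth at the plate median or of vehicle wells; lower values mean less growth of the strain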; conditions: S. cerevisiae deletion strains, growth OD, locus YOR061W, strain CKA2, hits give low values
In all, about 5,500 compounds went through this assay and about 2,000 (36%) were called active. About 18% were inconclusive and are not listed. The list shows a part of the results.
Give bare numbers.

Here is how some compounds turned out for normalized growth.
>>> observed_value("CCOC(=O)C(C)(C)Oc1ccc(Cl)cc1")
1.01
>>> observed_value("Cc1cccc(C)c1OCC(C)N (configuration not stated)")
0.998
>>> observed_value("CS(=O)(=O)c1ccc(C2=C(c3ccccc3)C(=O)OC2)cc1")
1
>>> observed_value("Cc1nn(Cc2cccc(C(=O)Nc3ccc(Cl)cc3)c2)c(C)c1Br")
0.96
>>> observed_value("CC(=O)OCC(=O)[C@H]1CCC2C3CCC4=CC(=O)CC[C@]4(C)C3CC[C@@]21C (some centres not stated)")
0.943

Fill in normalized growth for each of the 2 compounds listed.
1. COc1cc2c(cc1OC)Cc1cc(OC)c(OC)cc1Cc1cc(OC)c(OC)cc1C2
2. COc1cc2c(cc1OC)C(=O)OC2

1. 1.01
2. 1
